# Test system: NIH3T3 cells overexpressing HNF4
# methodDescription: MTT cell viability, HNF4 overexpressing cells vs parental line
# Assay type: cell-based, mouse
# conditionInfo: HNF4 high-expressing cells / parental cell line, 3 to 4 days
Non-standard residues stand in square brackets, D forms with d. Residues, ends and D or L forms follow the SMILES beside them. Nle = CCCC[C@H](N)C(=O)O
assayMetric: logarithmic value of ratio of IC40 values
Give a plain numeric answer without units written out.

| compound | recordedMeasurement |
| --- | --- |
| O=c1c(-c2ccc(O)cc2)coc2cc(O)cc(O)c12 | −0.15 |
| O=CN/C=C/c1cc(O)ccc1O | 2.00 |
| C=C[C@@]1(C)CC(=O)[C@]2(O)[C@@]3(C)[C@@H](O)CCC(C)(C)[C@@H]3[C@H](O)[C@H](OC(C)=O)[C@@]2(C)O1 | 0.00 |
| CCCC[C@@H](C=O)NC(=O)[C@H](CC(C)C)NC(=O)[C@H](CC(C)C)NC(C)=O [ALLN] (Ac-Leu-Leu-[Nle]-aldehyde) | −0.15 |
| C=C[C@]1(C)CC[C@@H](C(=C)C)C[C@H]1C(=C)C | 0.33 |

Next, consider the following compound.
INPUT: Can you look up the measured logarithmic value of ratio of IC40 values of COC[C@H]1OC(=O)c2coc3c2[C@@]1(C)C1=C(C3=O)[C@@H]2CCC(=O)[C@@]2(C)C[C@H]1OC(C)=O for me?
OUTPUT: 0.14
